# Measurement target: Aβ42 (Homo sapiens)
# Assay name: Th-T (thioflavin-T) assay of Aβ42 aggregation
# Type: biochemical
# Measurement conditions: column suffix _10; reading M100
Is Fig. 7a Th-T reading, mean of three wells at least 3? Then Criterion met. If not, Criterion not met.

Does the reported Fig. 7a Th-T reading, mean of three wells for C=C1CCC2C(C)(CCC=C(C)C)C(O)CCC2(C)C1Cc1c(OC)oc(C)c(C(=O)OC)c1=O (centres unmarked) fall at or above the 3 mark? Criterion not met

For this molecule, is measured Fig. 7a Th-T reading, mean of three wells 3 or higher? `C=C1CC[C@@H]2[C@](C)(CC[C@H]3O[C@H](C=C(C)C)C[C@@]23C)[C@@H]1Cc1c(OC)oc(CO)c(C(=O)OC)c1=O` Criterion not met

Hi team, for C=C1CCC2C(C)(CCC=C(C)C)C(O)CCC2(C)C1Cc1c(OC)oc(CO)c(C(=O)OC)c1=O (centres unmarked) , is the recorded Fig. 7a Th-T reading, mean of three wells at or above 3? Criterion not met

// inclusive: Fig. 7a Th-T reading, mean of three wells at least 3? input: `C=C1CC[C@@H]2[C@](C)(CC[C@H]3O[C@H](C=C(C)C)C[C@@]23C)[C@@H]1Cc1c(OC)oc(CO)c(C)c1=O` Criterion met

Decide: Fig. 7a Th-T reading, mean of three wells of C=C1CCC2C(C)(CCC=C(C)C)C(O)CCC2(C)C1Cc1c(OC)oc(CO)c(C)c1=O (centres unmarked) >= 3? Criterion not met

---

# Measurement target: Aβ42 (Homo sapiens, UniProt P05067)
# Sequence (P05067 672-713): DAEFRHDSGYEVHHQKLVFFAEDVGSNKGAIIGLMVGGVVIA
# Assay name: Th-T (thioflavin-T) assay of Aβ42 aggregation
# Format: biochemical
# Measurement conditions: head suffix _50 (concentration 50); reading M77
Please respond with TRUE when measured Th-T fluorescence of Aβ42 (sheet Fig. 7a), mean of three wells is strictly beneath 0.5, and with FALSE in all other cases.

Decide: Th-T fluorescence of Aβ42 (sheet Fig. 7a), mean of three wells of C=C1CCC2C(C)(CCC=C(C)C)C(O)CCC2(C)C1Cc1c(OC)oc(C)c(C(=O)OC)c1=O (centres unmarked) [Compound 14] strictly below 0.5? FALSE

Decide: Th-T fluorescence of Aβ42 (sheet Fig. 7a), mean of three wells of C=C1CCC2C(C)(CCC=C(C)C)C(O)CCC2(C)C1Cc1c(OC)oc(CO)c(C(=O)OC)c1=O (centres unmarked) [Compound 13] strictly below 0.5? TRUE

# TODO verify Th-T fluorescence of Aβ42 (sheet Fig. 7a), mean of three wells < 0.5 strictly for this compound: C=C1CC[C@@H]2[C@](C)(CC[C@H]3O[C@H](C=C(C)C)C[C@@]23C)[C@@H]1Cc1c(OC)oc(CO)c(C(=O)OC)c1=O [Compound 21] TRUE

Could you please tell me whether Th-T fluorescence of Aβ42 (sheet Fig. 7a), mean of three wells recorded for C=C1CC[C@@H]2[C@](C)(CC[C@H]3O[C@H](C=C(C)C)C[C@@]23C)[C@@H]1Cc1c(OC)oc(CO)c(C)c1=O [Compound 20] is less than 0.5? FALSE

Lab log: compare recorded Th-T fluorescence of Aβ42 (sheet Fig. 7a), mean of three wells with 0.5; is it strictly lower for C=C1CCC2C(C)(CCC=C(C)C)C(O)CCC2(C)C1Cc1c(OC)oc(CO)c(C)c1=O (centres unmarked) [Compound 12] ? FALSE

---

# Assay name: cytotoxicity in Drosophila DL1 cells
# Type: cell-based
# Measurement conditions: Drosophila, DL1 cells (embryonic macrophage-derived), DL1 cells, 0.04 µM, replicate 1, relative to DMSO 1%; read-out: % viability, viability 1
Recorded endpoint: viability at 0.04 µM (%)
Write it as a number; the unit % goes unstated.

Fill in viability at 0.04 µM for record `C=C1CC[C@H]2[C@]3(C)C[C@@H](C=C(C)C)O[C@H]3CC[C@]2(C)[C@@H]1Cc1c(O)c(C)c(C)oc1=O` 6.35

Provide measured viability at 0.04 µM value, entry: `C=C1CC[C@H]2[C@]3(C)C[C@@H](C=C(C)C)O[C@H]3CC[C@]2(C)[C@@H]1Cc1c(OC)oc(CO)c(C)c1=O` 195

Indicate the recorded viability at 0.04 µM value for this molecule: C=C1CCC2C(C)(CCC=C(C)C)C(O)CCC2(C)C1Cc1c(OC)oc(C)c(C(=O)OC)c1=O (stereo not drawn) 109

# return recorded viability at 0.04 µM for entry C=C1CCC2C(C)(CC(=O)C=C(C)C)C(O)CCC2(C)C1Cc1c(O)c(C)c(C)oc1=O (stereo not drawn) 129

Identify viability at 0.04 µM associated with the molecule C=C1CCC2C(C)(CCC=C(C)C)C(=O)CCC2(C)C1Cc1c(O)c(C)c(C)oc1=O (stereo not drawn) 189

In one line, give reported viability at 0.04 µM of the entry `C=C1CC[C@H]2[C@]3(C)C[C@H](C=C(C)C)O[C@H]3CC[C@]2(C)[C@@H]1Cc1c(O)c(C)c(C)oc1=O` . 118

---

# Measurement target: Aβ42 (Homo sapiens)
# Assay name: Th-T (thioflavin-T) assay of Aβ42 aggregation
# Assay type: biochemical
# Measurement conditions: reading M116; compound at 10 (head suffix _10)
# MET = Th-T fluorescence, mean of three wells (Fig. 7a) below 3 (exclusive); NOT MET = Th-T fluorescence, mean of three wells (Fig. 7a) at/above 3

Criterion: Th-T fluorescence, mean of three wells (Fig. 7a) strictly below 3. Is it met by `C=C1CC[C@@H]2[C@](C)(CC[C@H]3O[C@H](C=C(C)C)C[C@@]23C)[C@@H]1Cc1c(OC)oc(CO)c(C)c1=O` ? NOT MET

In plain terms, does C=C1CCC2C(C)(CCC=C(C)C)C(O)CCC2(C)C1Cc1c(OC)oc(CO)c(C(=O)OC)c1=O (centres unmarked) come in under 3 for Th-T fluorescence, mean of three wells (Fig. 7a)? MET

Please let me know if C=C1CCC2C(C)(CCC=C(C)C)C(O)CCC2(C)C1Cc1c(OC)oc(C)c(C(=O)OC)c1=O (centres unmarked) shows Th-T fluorescence, mean of three wells (Fig. 7a) below 3. MET

Is it true that Th-T fluorescence, mean of three wells (Fig. 7a) reported for `C=C1CC[C@@H]2[C@](C)(CC[C@H]3O[C@H](C=C(C)C)C[C@@]23C)[C@@H]1Cc1c(OC)oc(CO)c(C(=O)OC)c1=O` is less than 3? MET

Decide: Th-T fluorescence, mean of three wells (Fig. 7a) of C=C1CCC2C(C)(CCC=C(C)C)C(O)CCC2(C)C1Cc1c(OC)oc(CO)c(C)c1=O (centres unmarked) strictly below 3? MET

---

# Assay name: cytotoxicity in Drosophila l(2)mbn cells
# Assay type: cell-based
# Measurement conditions: Drosophila, 0.2 µM, replicate 2, relative to DMSO 1%, read-out: % viability, viability 2
Recorded endpoint: viability at 0.2 µM (%)
Write down the numeric answer in % and omit the unit.

Recall and state the measured viability at 0.2 µM for C=C1CCC2C(C)(CCC=C(C)C)C(O)CCC2(C)C1Cc1c(OC)oc(C)c(C)c1=O (stereo not shown) . 70.9

---

# Tested on: l(2)mbn cells
# Assay name: cytotoxicity in Drosophila l(2)mbn cells
# Assay type: cell-based
# Measurement conditions: 4 µM, replicate 1
Recorded endpoint: Luminescence Raw1
Number only, please.

Return Luminescence Raw1 (reported value) for this compound: C=C1CCC2C(C)(CCC=C(C)C)C(O)CCC2(C)C1Cc1c(O)c(C)c(C)oc1=O (stereo not shown) [Compound 4] 5612720

Give Luminescence Raw1 for C=C1CCC2C(C)(CC(=O)C=C(C)C)C(O)CCC2(C)C1Cc1c(O)c(C)c(C)oc1=O (stereo not shown) [Compound 7] 3312398

Note Luminescence Raw1 for the compound shown: C=C1CCC2C(C)(CCC=C(C)C)C(=O)CCC2(C)C1Cc1c(O)c(C)c(C)oc1=O (stereo not shown) [Compound 8] 4437905

Provide one value: measured Luminescence Raw1 of C=C1CCC2C(C)(CC(=O)C=C(C)C)C(O)CCC2(C)C1Cc1c(OC)oc(C)c(C)c1=O (stereo not shown) [Compound 25] 3528838

Please look at this compound and report its Luminescence Raw1: C=C1CC[C@H]2[C@]3(C)C[C@H](C=C(C)C)O[C@H]3CC[C@]2(C)[C@@H]1Cc1c(OC)oc(CO)c(C)c1=O [Compound 18] 1663102

In one line, give reported Luminescence Raw1 of the entry C=C1CC[C@H]2[C@]3(C)C[C@@H](C=C(C)C)O[C@H]3CC[C@]2(C)[C@@H]1Cc1c(O)c(C)c(C)oc1=O [Compound 5, subglutinol A] . 213369

Look up Luminescence Raw1 of C=C1CCC2C(C)(CC(=O)C=C(C)C)C(O)CCC2(C)C1Cc1c(OC)oc(CO)c(C)c1=O (stereo not shown) [Compound 19] and report it. 3215834

Quote Luminescence Raw1 reported for C=C1CCC2C(C)(CCC=C(C)C)C(O)CCC2(C)C1Cc1c(OC)oc(CO)c(C(=O)OC)c1=O (stereo not shown) [Compound 13] please. 2332844

Check the records and state Luminescence Raw1 for C=C1CC[C@@H]2[C@](C)(CC[C@H]3O[C@H](C=C(C)C)C[C@@]23C)[C@@H]1Cc1c(OC)oc(CO)c(C)c1=O [Compound 20] 97218

Provide Luminescence Raw1 value for the following compound: C=C1CCC2C(C)(CCC=C(C)C)C(O)CCC2(C)C1Cc1c(OC)oc(C)c(C(=O)OC)c1=O (stereo not shown) [Compound 14] 473811
